Source listed as PubChem BioAssay AID588689.

# measurement_target: Genome polyprotein (Dengue virus type 2 (strain 16681-PDK53)) (UniProt P29991)
# test_protocol: flavivirus cap methylation enzyme inhibition – biochemical, confirmation dose response, primary screen (AID 588689)
# settings: Dengue-2 NS5 methyltransferase capping enzyme assay, at 25 µM, active compounds read high
Screen size: about 340,000 compounds; about 1,000 (0.29%) were called active. Only a sample is shown. Results with a measured potency or affinity are listed apart.
recorded_metric: inhibition (%)
Use % as the unit, but write only the number.

Which inhibition is listed for Cc1sc(NC(=O)C2C3CCC(C3)C2C(=O)O)c(C(N)=O)c1-c1ccc(C(C)(C)C)cc1 (centres undefined) ?
7.13

Using the record for `Cc1onc(-c2c(F)cccc2Cl)c1C(=O)NNC(=O)C1CCN(Cc2cccc(F)c2)CC1` , report its inhibition.
-7.02

What does the record list as inhibition for `CNCc1ccccc1Sc1cccc(O)c1` ?
-3.83

Record request: inhibition value, item CCOC(=O)C1(C)/C(=N/Nc2ccccc2Cl)C(=O)C(=O)N1c1ccccc1 (centres undefined)
-3.23

###

# measurement_target: Genome polyprotein (Dengue virus type 2 (strain 16681-PDK53))
# test_protocol: flavivirus cap methylation enzyme inhibition – biochemical, confirmation dose response, primary screen (AID 588689)
# settings: Dengue-2 NS5 methyltransferase capping enzyme assay, at 25 µM, active compounds read high
The campaign covered roughly 340,000 compounds. About 1,000 (0.29%) were called active. A selection follows. Measured potencies and affinities stand elsewhere.
recorded_metric: inhibition (%)
Report only the number, with the unit % understood.

Provide value of inhibition for this record tested with Genome polyprotein (Dengue virus type 2 (strain 16681-PDK53)): `O=c1c2ccccc2[nH]c(=S)n1-c1cccc(S(=O)(=O)N2CCCC2)c1`
-8.01

Lab request: please report inhibition under test system Genome polyprotein (Dengue virus type 2 (strain 16681-PDK53)) for `COc1ccc(CN(C)CC(=O)Nc2c(C)cccc2C)c(OC)c1`
1.51

Please tell me: inhibition of `Cc1ccc(Oc2ccccc2/C=C2\SC(=O)N(C)C2=O)cc1` , system Genome polyprotein (Dengue virus type 2 (strain 16681-PDK53))?
0

Report inhibition for `CN(C)c1ccc(Cc2ccc(N(C)C)cc2)cc1` tested on Genome polyprotein (Dengue virus type 2 (strain 16681-PDK53)).
4.45

Give Genome polyprotein (Dengue virus type 2 (strain 16681-PDK53)) inhibition for COc1cccc(CN2CCNC(=O)C2CC(=O)NCCc2ccccn2)c1 (stereo unspecified)
-3.12

Notebook entry, Genome polyprotein (Dengue virus type 2 (strain 16681-PDK53)) assay: inhibition of `CCCC(=O)Nc1ccccc1NC(=O)CCC` = ?
0

Write down the reported inhibition of `Cc1ccc(NC2=C(NC(=O)c3ccccc3)C(=O)c3ccccc3C2=O)cc1Cl` , test system: Genome polyprotein (Dengue virus type 2 (strain 16681-PDK53)).
26.9

What reported inhibition corresponds to `O=C(NCc1ccco1)c1nnc(Cc2ccc(F)cc2)o1` on Genome polyprotein (Dengue virus type 2 (strain 16681-PDK53))?
2.07

Give Genome polyprotein (Dengue virus type 2 (strain 16681-PDK53)) inhibition for `O=C1NC(=O)/C(=C/c2ccccc2Oc2ccc(Cl)cc2)S1`
-4.16

Query for Genome polyprotein (Dengue virus type 2 (strain 16681-PDK53)): what inhibition does the record show for `O=C1NC(=O)/C(=C\c2ccccc2Oc2ccc(F)c(F)c2)S1` ?
24.6

Recorded inhibition for CSCCC(NC(N)=O)C(=O)Nc1ccc2ccccc2c1 (stereo unspecified) with Genome polyprotein (Dengue virus type 2 (strain 16681-PDK53)), please?
3.12

API: value(readout= inhibition, system= Genome polyprotein (Dengue virus type 2 (strain 16681-PDK53)), query= CCCC1CC(CSc2ncn[nH]2)OC1=O (stereo unspecified) )
-12.3

Query inhibition on Genome polyprotein (Dengue virus type 2 (strain 16681-PDK53)) for `O=C(NN1C(=O)/C(=C/c2ccc(O)c([N+](=O)[O-])c2)SC1=S)c1ccccc1Cl`
-3.59

Quick check: inhibition on Genome polyprotein (Dengue virus type 2 (strain 16681-PDK53)), item `COc1ccc(C(=O)N(CC(=O)NC(C)(C)C)c2ccc3c(c2)OCCO3)cc1OC` ?
-3.24

Given the entry `CCC(=O)Nc1c(C)cc(C)cc1Cl` , what inhibition was observed with Genome polyprotein (Dengue virus type 2 (strain 16681-PDK53))?
-1.67

Kindly state the measured inhibition obtained for `NS(=O)(=O)c1ccc(N=Nc2ccc(O)c3ncccc23)cc1` with Genome polyprotein (Dengue virus type 2 (strain 16681-PDK53)).
13.7
